Test system: Felis catus
RUN_DESCRIPTION: Effective dose for lowering blood pressure in anesthetized cat when administered intravenously
Format: functional
REPORTED_CONDITIONS: iv
# ED20 listing for each entry below
# output: number + unit

In the examples that follow, each entry is paired with its recorded ED20.
Entry under test: C=C[C@@]1(C)CC(=O)[C@]2(O)C3(C)C(C(OC(=O)CN4CCCCC4)C(O)[C@@]2(C)O1)C(C)(C)CC[C@@H]3O.Cl (stereo partly specified) . Its ED20 was 3 mg/kg

Query C=C[C@@]1(C)CC(=O)[C@]2(O)C3(C)C(C(O)C(OC(=O)C(C)N4CCOCC4)[C@@]2(C)O1)C(C)(C)CC[C@@H]3O.Cl (stereo partly specified) yields ED20 of 2 mg/kg

Briefly, ED20 measured for C=C[C@@]1(C)CC(=O)[C@]2(O)C3(C)C(C(OC(=O)CN4CCC(NC(=O)c5ccccc5)CC4)C(O)[C@@]2(C)O1)C(C)(C)CC[C@@H]3O (stereo partly specified) : 4 mg/kg

Next:
The molecule listed as C=C[C@@]1(C)CC(=O)[C@]2(O)C3(C)C(C(O)C(OC(=O)C(C)(C)N4CCOCC4)[C@@]2(C)O1)C(C)(C)CC[C@@H]3O.Cl (stereo partly specified) shows ED20 equal to 1.8 mg/kg

C=C[C@@]1(C)CC(=O)[C@]2(O)C3(C)C(C(OC(=O)Cn4cnc5c4c(=O)n(C)c(=O)n5C)C(O)[C@@]2(C)O1)C(C)(C)CC[C@@H]3O (stereo partly specified) yielded ED20 of 4.5 mg/kg

The molecule listed as C=C[C@@]1(C)CC(=O)[C@]2(O)C3(C)C(C(O)C(OC(=O)CN4CCN(C)CC4)[C@@]2(C)O1)C(C)(C)CC[C@@H]3O.Cl (stereo partly specified) has a reported ED20 of 0.9 mg/kg

Per the records, this molecule ( C=C[C@@]1(C)CC(=O)[C@]2(O)C3(C)C(C(OC(=O)CN(C)C4CCCCC4)C(O)[C@@]2(C)O1)C(C)(C)CC[C@@H]3O.ClC(Cl)Cl (stereo partly specified) ) has ED20 equal to 3.5 mg/kg
